Data provenance is patent US20190016825A1.

study.system: T1, PCSK9-D374Y-BP15-His6 (human, UniProt Q8NBP7 31-692, biotin on the BP15 biotin receiving peptide)
T1 construct: also called PCSK9-Y; mutant PCSK9
measurement.protocol: ELISA, bio-PCSK9-Y captured on streptavidin plate
Each item that follows carries a reported EC50.
measurement.kind: EC50

binder	measured
h001-13 (antibody, human IgG1, V domains shown, Variable regions only; also called h001_VH.1C + h001_VL.1) VH: QVQLVQSGAEVKKPGASVKVSCKASGYTFNDYWMHWVRQAPGQGLEWMGYINPSSGFTKYHQNFKDRVTMTRDTSISTAYMELSRLTSDDTAVYYCARQYDYDEDWYFDVWGQGTTVTVSS VL: DIQMTQSPSSLSASVGDRVTITCKSSQSLLNSRTRKNFLAWYQQKPGKAPKLLIYWASTRESGVPSRFSGSGSGTDFTLTISSLQPEDFATYYCKQSFNLFTFGQGTKLEIK	0.0096 µg/mL
h001-17 (antibody, human IgG1, V domains shown, Variable regions only; also called h001_VH.1D + h001_VL.1) VH: QVQLVQSGAEVKKPGASVKVSCKASGYTFNDYWMHWVRQAPGQGLEWMGYINPSSGFTKYHQNFKDRVTMTADKSISTAYMELSRLTSDDTAVYYCARQYDYDEDWYFDVWGQGTTVTVSS VL: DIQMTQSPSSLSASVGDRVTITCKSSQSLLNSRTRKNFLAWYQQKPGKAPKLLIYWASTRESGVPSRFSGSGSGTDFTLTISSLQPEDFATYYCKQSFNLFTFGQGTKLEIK	0.0161 µg/mL
h001-24 (antibody, human IgG1, V domains shown, Variable regions only; also called h001_VH.1E + h001_VL.1C) VH: QVQLVQSGAEVKKPGASVKVSCKASGYTFNDYWMHWVKQAPGQGLEWIGYINPSSGFTKYHQNFKDKATLTADKSISTAYMELSRLTSDDTAVYYCARQYDYDEDWYFDVWGQGTTVTVSS VL: DIVMSQSPSSLSASVGDRVTITCKSSQSLLNSRTRKNFLAWYQQKPGKSPKLLIYWASTRESGVPDRFSGSGSGTDFTLTISSLQPEDFATYYCKQSFNLFTFGQGTKLEIK	0.017 µg/mL
